- ASSAY_SUMMARY: Cmax in Wistar rat plasma at 10 mg/kg, ip
- Assay type: ADME, organism-based
- Parameters: dose 10 mg/kg, route intraperitoneal
MEASURE: Cmax (ng/mL)
Provide only the numeric value, understood in ng/mL.

Cmax measured on `CCCCCCNC(=O)c1nn(-c2ccc(Cl)cc2Cl)c(-n2cccc2)c1C` = 170

---

- ASSAY_SUMMARY: Cmax in Wistar rat brain at 10 mg/kg, ip
- Assay type: ADME, organism-based
- Design: dose 10 mg/kg, route intraperitoneal
MEASURE: Cmax (ng/mL)
Provide only the numeric value, understood in ng/mL.

Cmax measured on `CCCCCCNC(=O)c1nn(-c2ccc(Cl)cc2Cl)c(-n2cccc2)c1C` = 110

The measurements presented in this section are drawn from ChEMBL document CHEMBL1629497.
